system.under.test: human ether-à-go-go-related gene (hERG) potassium channel (human);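 note: peak tail current of the secondary pulse compared with the same well before compound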
experiment.notes: primary screen, population patch clamp on CHO cells stably expressing hERG; higher = less effect of the substance
Out of some 310,000 compounds screened, about 14,000 (4.5%) showed an effect of 50% or more. The effect is printed as a negative number. What follows is part of a selection rich in strong results, with near analogues and random picks from the rest.
measured.metric: hERG current change (%, negative = inhibition) at 10uM (%)

COc1ccc(C2C3=C(CCCC3=O)N(CC(=O)O)C3=C2C(=O)CCC3)cc1Cl: 23.8
CC(C)CN=CC1=C(O)c2ccccc2C1=O: -71.4
CCCCN(CC)Cc1ccc(CNC(=O)Nc2ccc(F)cc2)o1: -32.1
Cc1onc(-c2ccccc2)c1CNS(=O)(=O)c1cccc(Cl)c1: -7.19
O=C1N=C(N2C=CC(=C3C=CNC=C3)C=C2)/C(=C/N=NC(=O)c2ccccc2)S1: 30.3

----------
Quick list: hERG current change (%, negative = inhibition) at 10uM per entry.
system.under.test: human ether-à-go-go-related gene (hERG) potassium channel (human, UniProt Q12809);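 note: peak tail current of the secondary pulse compared with the same well before compound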
Sequence (Q12809 whole entry, looked up): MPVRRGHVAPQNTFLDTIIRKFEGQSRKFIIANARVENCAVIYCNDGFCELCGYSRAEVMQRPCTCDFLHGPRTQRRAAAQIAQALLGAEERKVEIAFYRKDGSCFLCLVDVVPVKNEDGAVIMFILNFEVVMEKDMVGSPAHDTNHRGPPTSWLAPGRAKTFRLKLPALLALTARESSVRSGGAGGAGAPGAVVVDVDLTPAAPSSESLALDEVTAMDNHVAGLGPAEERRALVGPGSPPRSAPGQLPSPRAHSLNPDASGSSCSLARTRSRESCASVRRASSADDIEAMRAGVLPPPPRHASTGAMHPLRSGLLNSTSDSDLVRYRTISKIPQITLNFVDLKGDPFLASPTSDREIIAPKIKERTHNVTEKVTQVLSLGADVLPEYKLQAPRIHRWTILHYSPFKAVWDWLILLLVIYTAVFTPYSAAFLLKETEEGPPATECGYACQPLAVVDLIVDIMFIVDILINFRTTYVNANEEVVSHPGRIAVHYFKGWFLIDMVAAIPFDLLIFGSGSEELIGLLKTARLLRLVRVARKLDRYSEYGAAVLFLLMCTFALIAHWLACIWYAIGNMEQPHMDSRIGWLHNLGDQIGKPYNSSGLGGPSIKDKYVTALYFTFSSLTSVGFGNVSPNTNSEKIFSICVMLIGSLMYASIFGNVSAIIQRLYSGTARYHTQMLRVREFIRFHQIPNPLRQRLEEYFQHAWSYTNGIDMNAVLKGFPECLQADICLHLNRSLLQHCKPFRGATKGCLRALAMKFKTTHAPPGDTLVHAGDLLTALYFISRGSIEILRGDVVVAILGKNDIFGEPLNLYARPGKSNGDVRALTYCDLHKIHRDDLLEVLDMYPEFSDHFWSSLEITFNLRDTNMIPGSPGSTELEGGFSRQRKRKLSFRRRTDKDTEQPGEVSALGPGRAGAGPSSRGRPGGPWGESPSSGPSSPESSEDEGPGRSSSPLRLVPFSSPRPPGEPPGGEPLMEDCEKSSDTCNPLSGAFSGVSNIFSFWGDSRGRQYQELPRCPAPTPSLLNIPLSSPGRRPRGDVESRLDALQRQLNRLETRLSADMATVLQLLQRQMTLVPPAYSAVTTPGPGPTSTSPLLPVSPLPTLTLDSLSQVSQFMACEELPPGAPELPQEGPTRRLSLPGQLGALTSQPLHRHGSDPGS
experiment.notes: primary screen, population patch clamp on CHO cells stably expressing hERG; higher = less effect of the substance
Screen size: about 310,000 compounds; about 14,000 (4.5%) showed an effect of 50% or more. Effects have a minus sign here. The sample holds strong results, similar compounds and a random draw of the others, so the mix is not that of the screen.
measured.metric: hERG current change (%, negative = inhibition) at 10uM (%)

C#CCNC(=O)C1=C[C@@H](c2cn(C(C)=O)c3ccccc23)C[C@@H](OCCCCO)O1: -40.1
C=CCOC(=O)C1=C[C@H](c2cn(C(C)=O)c3ccccc23)C[C@H](OCCCCO)O1: -38.7
CC(=O)n1cc([C@@H]2C=C(C(=O)Nc3ccccc3)O[C@H](OCCCCO)C2)c2ccccc21: -54.5
CC(=O)n1cc([C@@H]2C=C(C(=O)NCc3ccccc3)O[C@H](OCc3ccc(CO)cc3)C2)c2ccccc21: -26.6

----------
system.under.test: human ether-à-go-go-related gene (hERG) potassium channel (human, UniProt Q12809);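 note: peak tail current of the secondary pulse compared with the same well before compound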
experiment.notes: primary screen, population patch clamp on CHO cells stably expressing hERG; higher = less effect of the substance
The whole screen tested about 310,000 compounds, of which about 14,000 (4.5%) showed an effect of 50% or more. The effect is printed as a negative number. The sample holds strong results, similar compounds and a random draw of the others, so the mix is not that of the screen.
measured.metric: hERG current change (%, negative = inhibition) at 10uM

O=C(/C=C/c1ccc(Cl)c([N+](=O)[O-])c1)Nc1cccnc1: -17.3%
Nc1nnc(SCC(=O)NC2CCCCCCC2)s1: 16.9%
COC(=O)CSc1[nH]c2ccccc2c1[N+](=O)[O-]: 7.33%
CCc1ccc2c(CC(=O)Nc3cccc(S(=O)(=O)N4CCOCC4)c3)coc2c1: -0.796%
COc1ccccc1CNC(=O)COC(=O)Cc1cccc(F)c1: 1.78%
NS(=O)(=O)c1cccc(NC(=O)CSc2nnc(C3CC3)n2C2CC2)c1: 8.95%
CCOc1ccc(NC(=O)CSc2nnc(C3CC3)n2C2CC2)cc1: -15.7%
CC(c1nnc(SCC(=O)NC(=O)NCc2ccco2)n1-c1ccc(Cl)cc1)N(C)C (stereo not drawn): -8.66%
Cc1c(C(=O)N2CCN(C(=O)c3ccco3)CC2)oc2c(Cl)cccc12: -34.3%
O=C(/C=C/c1ccc([N+](=O)[O-])cc1)Nc1cccnc1: -62.7%
O=C(/C=C/c1ccc([N+](=O)[O-])cc1)c1cccnc1: -53%
COc1ccc(CCn2c(=S)[nH]c3cc(C(=O)NCc4ccco4)ccc3c2=O)cc1OC: -1.08%
Cc1cc(Cl)c2oc(C(=O)N3CCN(C(=O)c4ccco4)CC3)c(C)c2c1: -53.9%
O=C(/C=C/c1cccnc1)c1ccc([N+](=O)[O-])cc1: -42.3%
COc1ccc2c(CC(=O)Nc3cccc(S(=O)(=O)N4CCOCC4)c3)coc2c1: -32.4%
Cc1cc(Cl)c2oc(C(=O)N3CCN(c4ccncc4)CC3)c(C)c2c1: -75.9%
N#Cc1cccc(NC(=O)CSc2nnc(C3CC3)n2C2CC2)c1: -52.4%
O=C(/C=C/c1ccccc1)Nc1cccnc1: -26%
O=C(CSc1nnc(C2CC2)n1C1CC1)Nc1cccc(Br)c1: -75.1%
CCNC(=O)O/N=C(\C)c1sc(-c2ccccc2)nc1C: -11.2%
Cc1ccc2c(CC(=O)Nc3cccc(S(=O)(=O)N4CCOCC4)c3)coc2c1: -51.4%
